# method.notes: self-splicing fitness, log relative to wild type (ln ratio); higher = more splicing; Tetrahymena group I intron in knt gene, E. coli kanamycin selection, DiMSum; sequences stand for … in CUCUCU…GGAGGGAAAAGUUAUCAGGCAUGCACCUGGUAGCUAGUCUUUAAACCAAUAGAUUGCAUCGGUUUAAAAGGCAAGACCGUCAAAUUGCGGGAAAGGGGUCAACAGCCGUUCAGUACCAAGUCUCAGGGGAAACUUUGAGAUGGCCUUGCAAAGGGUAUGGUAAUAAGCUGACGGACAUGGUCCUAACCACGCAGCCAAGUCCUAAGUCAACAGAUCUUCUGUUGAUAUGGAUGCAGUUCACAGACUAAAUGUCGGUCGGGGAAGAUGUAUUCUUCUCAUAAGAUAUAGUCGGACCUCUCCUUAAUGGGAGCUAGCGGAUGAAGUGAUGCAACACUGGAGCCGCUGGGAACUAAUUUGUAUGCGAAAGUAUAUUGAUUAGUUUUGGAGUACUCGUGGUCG;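 note: selection with 25 µg/mL kanamycin versus none on LB agar overnight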
# conditions.used: 37 °C
Class membership depends on self-splicing fitness (ln) alone; the intervals are c1 (below -2), c2 (-2 to below -0.6), c3 (-0.6 or more)

{"sequence.input": "AGAUAGCAAUAUUACGCUCG", "group": "c3"}
{"sequence.input": "GAUCAGCAAUAUUACGAAAC", "group": "c3"}
{"sequence.input": "GCAUAGCAAUAUUACGGAUA", "group": "c2"}
{"sequence.input": "GUUUAGCAAUAUUACGUGGC", "group": "c2"}
{"sequence.input": "GCGAAGCAAUAUUACGCAUC", "group": "c2"}
{"sequence.input": "ACAAAGCAAUAUUACGCAUU", "group": "c2"}
{"sequence.input": "GAGAAGCAAUAUUACGAGAC", "group": "c1"}
{"sequence.input": "CAAAAGCAAUAUUACGACCG", "group": "c3"}
{"sequence.input": "GCUAAGCAAUAUUACGUUCC", "group": "c3"}
{"sequence.input": "AAUGAGCAAUAUUACGAAGG", "group": "c1"}
{"sequence.input": "CAUCAGCAAUAUUACGCUUA", "group": "c3"}
{"sequence.input": "AAUAAGCAAUAUUACGCAUU", "group": "c1"}
{"sequence.input": "UAUGAGCAAUAUUACGGGGU", "group": "c1"}
{"sequence.input": "CAUAAGCAAUAUUACGUAGG", "group": "c2"}
{"sequence.input": "UGAGAGCAAUAUUACGCAUG", "group": "c1"}
{"sequence.input": "AUAAAGCAAUAUUACGGUGA", "group": "c3"}
{"sequence.input": "UUAAAGCAAUAUUACGUUAC", "group": "c2"}
{"sequence.input": "CCGAAGCAAUAUUACGAUAU", "group": "c1"}
{"sequence.input": "CUUAAGCAAUAUUACGCACA", "group": "c2"}
{"sequence.input": "CAAUAGCAAUAUUACGAAUG", "group": "c3"}
{"sequence.input": "GAUUAGCAAUAUUACGCAUU", "group": "c1"}
{"sequence.input": "UGAUAGCAAUAUUACGUGGU", "group": "c1"}
{"sequence.input": "CGACAGCAAUAUUACGAUUC", "group": "c2"}
{"sequence.input": "CUUAAGCAAUAUUACGAGUG", "group": "c3"}
{"sequence.input": "AACCAGCAAUAUUACGGUUU", "group": "c1"}
{"sequence.input": "CAUUAGCAAUAUUACGGGGG", "group": "c2"}
{"sequence.input": "AACAAGCAAUAUUACGUCUU", "group": "c3"}
{"sequence.input": "CGCGAGCAAUAUUACGAUGU", "group": "c1"}
{"sequence.input": "CUUAAGCAAUAUUACGGUUU", "group": "c1"}
{"sequence.input": "ACGCAGCAAUAUUACGAUGA", "group": "c3"}
{"sequence.input": "CACGAGCAAUAUUACGACUU", "group": "c2"}
{"sequence.input": "AAGGAGCAAUAUUACGAAUC", "group": "c2"}
{"sequence.input": "UCACAGCAAUAUUACGCAUG", "group": "c2"}
{"sequence.input": "GAGGAGCAAUAUUACGCGCA", "group": "c2"}
{"sequence.input": "CGCGAGCAAUAUUACGGCAC", "group": "c2"}
{"sequence.input": "AUACAGCAAUAUUACGCCGC", "group": "c1"}
{"sequence.input": "CCAAAGCAAUAUUACGUGCA", "group": "c1"}
{"sequence.input": "UAUAAGCAAUAUUACGCGUG", "group": "c3"}
{"sequence.input": "GUCUAGCAAUAUUACGGAAC", "group": "c3"}
{"sequence.input": "GUCCAGCAAUAUUACGUUUU", "group": "c3"}
{"sequence.input": "UUGUAGCAAUAUUACGAGGU", "group": "c1"}
{"sequence.input": "CGUAAGCAAUAUUACGGUCC", "group": "c1"}
{"sequence.input": "AAUGAGCAAUAUUACGCAAA", "group": "c1"}
{"sequence.input": "CUACAGCAAUAUUACGCACA", "group": "c1"}
{"sequence.input": "ACAUAGCAAUAUUACGCGGC", "group": "c1"}
{"sequence.input": "UGACAGCAAUAUUACGCUCG", "group": "c3"}
{"sequence.input": "CGUCAGCAAUAUUACGAAAG", "group": "c3"}
{"sequence.input": "CGGAAGCAAUAUUACGGGGC", "group": "c1"}
{"sequence.input": "GUACAGCAAUAUUACGUAUA", "group": "c2"}
{"sequence.input": "GAUAAGCAAUAUUACGGCUA", "group": "c3"}
{"sequence.input": "UCCCAGCAAUAUUACGGUAC", "group": "c2"}
{"sequence.input": "GGGAAGCAAUAUUACGGUAU", "group": "c2"}
{"sequence.input": "UCGAAGCAAUAUUACGCACG", "group": "c2"}
{"sequence.input": "GUCCAGCAAUAUUACGUUGU", "group": "c3"}
{"sequence.input": "CGGCAGCAAUAUUACGAUGU", "group": "c1"}
{"sequence.input": "AGAGAGCAAUAUUACGGCUG", "group": "c1"}
{"sequence.input": "AUAGAGCAAUAUUACGGAUG", "group": "c1"}
{"sequence.input": "CUCCAGCAAUAUUACGCGUA", "group": "c1"}
{"sequence.input": "CCUAAGCAAUAUUACGGACG", "group": "c3"}
{"sequence.input": "UAAAAGCAAUAUUACGAACU", "group": "c2"}
{"sequence.input": "CAGCAGCAAUAUUACGCCUU", "group": "c3"}
{"sequence.input": "GUCGAGCAAUAUUACGGAUU", "group": "c2"}
{"sequence.input": "AUAGAGCAAUAUUACGACCC", "group": "c2"}
{"sequence.input": "AGUGAGCAAUAUUACGACCU", "group": "c3"}
{"sequence.input": "GAUAAGCAAUAUUACGAUAU", "group": "c3"}

---

Examples of sequences with documented self-splicing fitness (ln) follow.
# method.notes: self-splicing fitness, log relative to wild type (ln ratio); higher = more splicing; Tetrahymena group I intron in knt gene, E. coli kanamycin selection, DiMSum; sequences stand for … in CUCUCU…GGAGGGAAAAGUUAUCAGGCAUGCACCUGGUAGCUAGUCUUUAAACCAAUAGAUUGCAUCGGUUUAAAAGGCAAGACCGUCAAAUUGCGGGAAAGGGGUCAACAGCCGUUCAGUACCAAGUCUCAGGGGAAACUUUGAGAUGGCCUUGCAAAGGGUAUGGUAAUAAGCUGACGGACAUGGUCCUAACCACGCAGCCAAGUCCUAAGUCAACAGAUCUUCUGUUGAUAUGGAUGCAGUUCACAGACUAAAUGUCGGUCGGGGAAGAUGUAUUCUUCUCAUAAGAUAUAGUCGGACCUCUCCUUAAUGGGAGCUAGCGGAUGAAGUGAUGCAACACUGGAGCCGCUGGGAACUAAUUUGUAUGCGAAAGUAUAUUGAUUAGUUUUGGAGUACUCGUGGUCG
# conditions.used: 37 °C

{"sequence.input": "AAGGAGCAAUAUUACGACGG", "self-splicing fitness (ln)": -0.954}
{"sequence.input": "CGGUAGCAAUAUUACGGCAC", "self-splicing fitness (ln)": -1.99}
{"sequence.input": "UCUAAGCAAUAUUACGGUCA", "self-splicing fitness (ln)": -0.792}
{"sequence.input": "UGCGAGCAAUAUUACGAACA", "self-splicing fitness (ln)": 0.122}
{"sequence.input": "CGCCAGCAAUAUUACGUUGC", "self-splicing fitness (ln)": -2.45}
{"sequence.input": "AAAAAGCAAUAUUACGACGA", "self-splicing fitness (ln)": -0.502}
{"sequence.input": "GUUUAGCAAUAUUACGCUUG", "self-splicing fitness (ln)": 0.632}
{"sequence.input": "CCGAAGCAAUAUUACGUUAU", "self-splicing fitness (ln)": -2.87}
{"sequence.input": "GCUUAGCAAUAUUACGGGUU", "self-splicing fitness (ln)": -1.43}
{"sequence.input": "CCCAAGCAAUAUUACGUGCG", "self-splicing fitness (ln)": -2.28}
{"sequence.input": "GCACAGCAAUAUUACGAAGG", "self-splicing fitness (ln)": -0.444}
{"sequence.input": "AUGCAGCAAUAUUACGAGGU", "self-splicing fitness (ln)": -2.27}
{"sequence.input": "GCGUAGCAAUAUUACGGGCA", "self-splicing fitness (ln)": -0.854}
{"sequence.input": "CGCGAGCAAUAUUACGGUGC", "self-splicing fitness (ln)": -2.47}
{"sequence.input": "UUCCAGCAAUAUUACGAUUA", "self-splicing fitness (ln)": -0.0509}
{"sequence.input": "UAUCAGCAAUAUUACGCAUU", "self-splicing fitness (ln)": -0.197}
